Test system: bermudagrass (Cynodon dactylon)
Experiment: Test B pre-/postemergence plant response
Format: in vivo
Conditions: Postemergence, 125 g ai/ha; scale 0 to 100 (0 no effect, 100 complete control)
ATTRIBUTE MEASURED: Plant response rating, Bermudagrass
Just the number, please, no unit after it.

The examples below pair each entry with its known result.
* CCCCn1c(-c2cccc(Cl)c2)ncc(C(=O)C2=C(O)CCCC2=O)c1=O | 100
* CCCn1c(-c2cccc(Br)c2)ncc(C(=O)C2=C(O)CCCC2=O)c1=O | 85

Turning now to a further record.
Query :: Param item = "COCCn1c(-c2cccc(Cl)c2)ncc(C(=O)C2=C(O)CCCC2=O)c1=O" ; retrieve measured Plant response rating, Bermudagrass.
Result :: 95
